Where do these numbers come from? They come from PubChem BioAssay AID2060899.

- Tested on: 565726-208-R1-J5-PDC complex spheroids, growth inhibition
- Assay remarks: Anticancer human tumor 565726-208-R1-J5-PDC patient-derived pancreatic adenocarcinoma cell line growth inhibition [RAS]
- Run parameters: second compound 0.316 µM; first compound 0.01 µM; active compounds read low
Measured metric: viability, T/C (%)
# output: bare number, implied unit %

Completed entries (count: 4):
Compound: CCN1CCN(Cc2ccc(Nc3ncc(F)c(-c4cc(F)c5nc(C)n(C(C)C)c5c4)n3)nc2)CC1 + C#Cc1c(F)ccc2cc(O)cc(-c3ncc4c(N5CC6CCC(C5)N6)nc(OCC56CCCN5CC(F)C6)nc4c3F)c12
Assay system: 565726-208-R1-J5-PDC complex spheroids, growth inhibition;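 further: spheroids exposed to compounds for seven days before readout; 100% = DMSO vehicle control viability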
viability, T/C (%): 143

Compound: Nc1ccn(C2OC(CO)C(O)C2(F)F)c(=O)n1 (stereo unspecified) + C=CC(=O)N1CCN(c2nc(OCC3CCCN3C)nc3c(F)c(-c4nc(N)cc(C)c4C(F)(F)F)c(Cl)cc23)C(C)C1
Assay system: 565726-208-R1-J5-PDC complex spheroids, growth inhibition;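 further: spheroids exposed to compounds for seven days before readout; 100% = DMSO vehicle control viability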
viability, T/C (%): 134

Compound: O=C(c1ccc(F)c(F)c1Nc1ccc(I)cc1F)N1CC(O)([C@@H]2CCCCN2)C1 + C#Cc1c(F)ccc2cc(O)cc(-c3ncc4c(N5CC6CCC(C5)N6)nc(OCC56CCCN5CC(F)C6)nc4c3F)c12
Assay system: 565726-208-R1-J5-PDC complex spheroids, growth inhibition;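 further: spheroids exposed to compounds for seven days before readout; 100% = DMSO vehicle control viability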
viability, T/C (%): 118

Compound: C=CC(=O)N1CCN(c2nc(OCC3CCCN3C)nc3c(F)c(-c4nc(N)cc(C)c4C(F)(F)F)c(Cl)cc23)C(C)C1 (stereo unspecified) + C#Cc1c(F)ccc2cc(O)cc(-c3ncc4c(N5CC6CCC(C5)N6)nc(OCC56CCCN5CC(F)C6)nc4c3F)c12
Assay system: 565726-208-R1-J5-PDC complex spheroids, growth inhibition;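 further: spheroids exposed to compounds for seven days before readout; 100% = DMSO vehicle control viability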
viability, T/C (%): 132

Reported viability, T/C for CC(C)n1nc(-c2ccc3oc(N)nc3c2)c2c(N)ncnc21 + C=CC(=O)N1CCN(c2nc(OCC3CCCN3C)nc3c(F)c(-c4nc(N)cc(C)c4C(F)(F)F)c(Cl)cc23)C(C)C1 : what is it?
68.7

Reported viability, T/C for C=CC(=O)Nc1cc(Nc2nccc(-c3cn(C)c4ccccc34)n2)c(OC)cc1N(C)CCN(C)C + C#Cc1c(F)ccc2cc(O)cc(-c3ncc4c(N5CC6CCC(C5)N6)nc(OCC56CCCN5CC(F)C6)nc4c3F)c12 : what is it?
130

Reported viability, T/C for Nc1ccn(C2OC(CO)C(O)C2(F)F)c(=O)n1 (stereo unspecified) + C#Cc1c(F)ccc2cc(O)cc(-c3ncc4c(N5CC6CCC(C5)N6)nc(OCC56CCCN5CC(F)C6)nc4c3F)c12 : what is it?
133

Reported viability, T/C for O=C(c1ccc(F)c(F)c1Nc1ccc(I)cc1F)N1CC(O)([C@@H]2CCCCN2)C1 + C=CC(=O)N1CCN(c2nc(OCC3CCCN3C)nc3c(F)c(-c4nc(N)cc(C)c4C(F)(F)F)c(Cl)cc23)C(C)C1 : what is it?
139

Reported viability, T/C for CC(C)n1nc(-c2ccc3oc(N)nc3c2)c2c(N)ncnc21 + C#Cc1c(F)ccc2cc(O)cc(-c3ncc4c(N5CC6CCC(C5)N6)nc(OCC56CCCN5CC(F)C6)nc4c3F)c12 : what is it?
59.8

Reported viability, T/C for CCN1CCN(Cc2ccc(Nc3ncc(F)c(-c4cc(F)c5nc(C)n(C(C)C)c5c4)n3)nc2)CC1 + C=CC(=O)N1CCN(c2nc(OCC3CCCN3C)nc3c(F)c(-c4nc(N)cc(C)c4C(F)(F)F)c(Cl)cc23)C(C)C1 : what is it?
136

Reported viability, T/C for C=CC(=O)Nc1cc(Nc2nccc(-c3cn(C)c4ccccc34)n2)c(OC)cc1N(C)CCN(C)C + C=CC(=O)N1CCN(c2nc(OCC3CCCN3C)nc3c(F)c(-c4nc(N)cc(C)c4C(F)(F)F)c(Cl)cc23)C(C)C1 : what is it?
152
